Origin of the recorded values: paper PMC12802937

- target.system: T1, Bre1-LR (Bre1 residues 227–700, LBD and RING domains), 6× histidine tag (budding yeast, UniProt Q07457 227-700)
- T1 construct: two Bre1 polypeptides form the dimeric coiled-coils of the LBD in the crystal structure; also called WT; source: E. coli BL21 Rosetta (DE3), purified (Ni-NTA, heparin, gel filtration)
- T1 sequence (looked up): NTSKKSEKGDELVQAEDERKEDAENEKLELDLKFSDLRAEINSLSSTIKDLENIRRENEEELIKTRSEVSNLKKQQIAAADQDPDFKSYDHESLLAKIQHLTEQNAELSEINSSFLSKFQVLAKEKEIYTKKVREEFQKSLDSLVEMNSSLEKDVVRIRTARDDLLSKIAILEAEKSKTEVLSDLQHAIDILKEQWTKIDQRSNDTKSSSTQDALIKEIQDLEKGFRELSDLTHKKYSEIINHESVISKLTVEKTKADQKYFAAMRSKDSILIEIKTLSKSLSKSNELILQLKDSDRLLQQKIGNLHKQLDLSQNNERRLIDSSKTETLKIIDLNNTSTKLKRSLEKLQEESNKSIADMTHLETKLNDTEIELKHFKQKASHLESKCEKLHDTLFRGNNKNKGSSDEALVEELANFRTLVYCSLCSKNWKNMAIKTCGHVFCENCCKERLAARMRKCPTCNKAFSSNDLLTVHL
- assay.overview: ITC; Lge1-CT (50–60 μM) injected into Bre1-LR (15 μM); 25°C, 20 mM TRIS (pH 7.5), 200 mM sodium chloride
- assay.conditions: both partners purified
Threshold check on dH: strictly below -50 kcal/mol is satisfied; on or above -50 kcal/mol is not satisfied.

Illustrative cases are given below, each with its answer.
Lge1-CT L325N (domain or fragment, budding yeast, UniProt Q02796 261-332, looked up, Lge1, budding yeast, residues 261-332; source: E. coli BL21 Rosetta (DE3): cleared cell extract on chitin resin (pull-down); purified (chitin, heparin, gel filtration) for ITC and SPR) KNVKKTNNTESECEKAREVFKESDSIDSALEELNLKINSNELELRLLNNQCDKHALNIQLTQEKNDSLLLMQ ... satisfied
Lge1-CT K324E (domain or fragment, budding yeast, UniProt Q02796 261-332, looked up, Lge1, budding yeast, residues 261-332; source: E. coli BL21 Rosetta (DE3): cleared cell extract on chitin resin (pull-down); purified (chitin, heparin, gel filtration) for ITC and SPR) KNVKKTNNTESECEKAREVFKESDSIDSALEELNLKINSNELELRLLNNQCDKHALNIQLTQEELDSLLLMQ ... not satisfied

Answer whether the binder Lge1-CT I318D (domain or fragment, budding yeast, UniProt Q02796 261-332, looked up, Lge1, budding yeast, residues 261-332; source: E. coli BL21 Rosetta (DE3): cleared cell extract on chitin resin (pull-down); purified (chitin, heparin, gel filtration) for ITC and SPR) KNVKKTNNTESECEKAREVFKESDSIDSALEELNLKINSNELELRLLNNQCDKHALNDQLTQEKLDSLLLMQ has dH strictly less than -50 kcal/mol
satisfied
